test system: DeltatarO mutant; assay: S. aureus survival, RN4220 and DeltatarO strains – OD600, teichoic acid synthesis inhibitors, primary screen (AID 463173); conditions: S. aureus RN4220 wild type/DeltatarO growth, OD600, 18 h, active compounds read low, screened at 18.75 µg/mL (by protocol)
Hit rate of the full screen: of about 52,000 compounds, about 4,300 (8.3%) were called active. Many of the other results were omitted from the sample, so actives are more common in it than they were.
readout-label: survival (%)
Dear colleague, please return just the value in %, with no unit written.

Solved cases below.
# structure, survival (%)
measured = [
    ("CC(C)CN(c1ccccc1)S(=O)(=O)c1nnc(NC(=O)C2CCCCC2)s1", 51),
    ("COc1ccc(CNC(=O)CSc2ncc(S(=O)(=O)c3ccc(Br)cc3)c(=O)[nH]2)cc1", 62),
    ("Cc1ccccc1Cn1c(=O)n(-c2ccc(Cl)cc2)c(=O)c2c3c(sc21)CCCC3", 114),
    ("COc1cc(NC(=O)CN2C(=O)C(c3ccc(C)cc3)=NC23CCCCCC3)cc(OC)c1", 83),
]

State the recorded survival for this entry: COc1cccc(-n2c(C)nc3cc(C(=O)O)ccc32)c1 177

====

test system: DeltatarO mutant; test: S. aureus survival, RN4220 and DeltatarO strains – OD600, teichoic acid synthesis inhibitors, primary screen (AID 463173); conditions: S. aureus RN4220 wild type/DeltatarO growth, OD600, 18 h, screened at 18.75 µg/mL (by protocol)
The whole screen tested about 52,000 compounds, of which about 4,300 (8.3%) were called active. Rule as the data show it: active = survival mostly below about 52% (no sharp cut-off); inactive = mostly above about 56%. Many of the other results were omitted from the sample, so actives are more common in it than they were.
Can you answer with just one of these options? Yes = active, No = inactive

Example results:
# compound, assayed-target, label-class
records = [
    ("CCOC(=O)C1CCCN(c2c(C(=O)c3ccccc3)cnc3ccc(F)cc23)C1 (stereo unspecified)", "DeltatarO mutant", "Yes"),
    ("CCOc1ccc(-c2cc(NC(=O)Nc3ccc(Cl)cc3)c(C(=O)OC)s2)cc1", "DeltatarO mutant", "No"),
    ("O=C(Nc1cc(-c2ccccc2)sc1C(=O)O)c1cccc(F)c1", "DeltatarO mutant", "Yes"),
    ("CCOc1ccc(-c2cc(NC(=O)Nc3cccc(C(C)=O)c3)c(C(=O)OC)s2)cc1", "DeltatarO mutant", "No"),
    ("COC(=O)c1sc(-c2ccccc2)cc1NC(=O)Nc1ccc(F)cc1", "DeltatarO mutant", "Yes"),
]

For CCCN(CCC)C(=O)CSc1c2c(nc3ccc(Cl)cc13)CCCC2 , what call appears in the results of this test? Yes

Okay, and COc1ccc(NC(=O)CSc2c3c(nc4ccc(Cl)cc24)CCCC3)cc1Cl ? No

Okay, and CCc1ccc(C(=O)c2cnc3ccc(F)cc3c2S(=O)(=O)c2ccccc2)cc1 ? No

Okay, and CC(O)Cc1nsc(NC(=O)c2cccs2)n1 (stereo unspecified) ? No

Okay, and COc1cc(/C=C/c2nc(C#N)c(N3CCN(C)CC3)o2)cc(OC)c1OC ? No

Okay, and COc1cc(/C=C/c2nc(C#N)c(N3CCCCCC3)o2)cc(OC)c1OC ? No

Okay, and COc1ccc(/C=C/c2nc(C#N)c(N3CCCCCC3)o2)cc1OC ? Yes

Okay, and COc1ccc(OC)c(Nc2ncc3c(n2)CCN(Cc2cc(OC)c(OC)c(OC)c2)C3)c1 ? No

Okay, and CN(Cc1ccccc1)C(=O)CSc1c2c(nc3ccc(Cl)cc13)CCCC2 ? Yes

Okay, and CC(C)(C)OC(=O)N1CC=C2C(C1)C(c1cccc(F)c1)C(C#N)=C(N)C2(C#N)C#N (stereo unspecified) ? No

Okay, and COc1ccc(/C=C/c2nc(C#N)c(N3CCCCC3)o2)cc1OC ? No

Okay, and COC(=O)c1sc(-c2ccccc2)cc1NC(=O)Nc1ccccc1Cl ? No

Okay, and COc1cccc(CNC(=O)CSc2c3c(nc4ccc(Cl)cc24)CCCC3)c1OC ? No

Okay, and CCc1ccc(CNC(=O)CSc2c3c(nc4ccc(Cl)cc24)CCCC3)cc1 ? No

Okay, and COc1ccc(N2CCN(c3oc(/C=C/c4cc(OC)c(OC)c(OC)c4)nc3C#N)CC2)cc1 ? Yes

Okay, and CCn1c(C)c(C)c2cc(C(=O)NCc3ccc(OC)cc3OC)ccc21 ? No
